# EXPERIMENTAL_TARGET: human aromatase (Homo sapiens, UniProt P11511)
# Construct: purchased BioVision
# Sequence (P11511 whole entry): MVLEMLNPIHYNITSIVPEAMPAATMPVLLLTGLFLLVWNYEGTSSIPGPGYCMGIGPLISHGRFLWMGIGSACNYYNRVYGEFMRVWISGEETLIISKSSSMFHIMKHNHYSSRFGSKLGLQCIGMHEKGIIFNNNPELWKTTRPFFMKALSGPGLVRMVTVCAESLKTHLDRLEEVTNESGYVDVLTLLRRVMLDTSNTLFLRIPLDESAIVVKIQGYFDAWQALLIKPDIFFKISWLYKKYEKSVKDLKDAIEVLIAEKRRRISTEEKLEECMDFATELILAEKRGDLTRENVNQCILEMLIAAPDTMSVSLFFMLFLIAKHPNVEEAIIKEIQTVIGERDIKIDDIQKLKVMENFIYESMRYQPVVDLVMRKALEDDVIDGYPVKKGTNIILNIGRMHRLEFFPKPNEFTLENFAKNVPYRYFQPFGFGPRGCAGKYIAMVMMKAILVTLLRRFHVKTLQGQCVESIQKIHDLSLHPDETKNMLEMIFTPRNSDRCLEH
# EXPERIMENT_NOTES: Aromatase (CYP19A) Inhibitor Screening Kit (Fluorimetric), BioVision
# Assay type: biochemical
# CONDITIONS_USED: fluorimetric kit, compound dissolved in acetonitrile; read-out: IC50 aromatase inhibition
# Description: An in vitro fluorescence-based test (Aromatase (CYP19A) Inhibitor Screening Kit (Fluorimetric), BioVision) was used to determine the inhibitory activity of the produced compounds against human aromatase. The BioVision Aromatase (CYP19A) Inhibitor Screening Kit (Fluorometric) was used to carry out this experiment.
MEASURED_METRIC: IC50 (µM)

P. O=C(CSc1nnc(-c2ccc3nc(-c4ccc(O)cc4)[nH]c3c2)o1)N1CCN(Cc2ccc(Cl)cc2)CC1
Q. O=C(CSc1nnc(-c2ccc3nc(-c4ccc(O)cc4)[nH]c3c2)o1)N1CCN(Cc2ccccc2)CC1
R. O=C(CSc1nnc(-c2ccc3nc(-c4ccc(O)cc4)[nH]c3c2)o1)N1CCN(Cc2ccc(F)cc2)CC1
S. CCOc1ccc(-c2nc3ccc(-c4nnc(SCC(=O)N5CCN(Cc6ccc(F)cc6)CC5)o4)cc3[nH]2)cc1
Can you order these entries from above by IC50? Start with the largest number and work down. # list labels per requested ordering S, Q, R, P

====

# Tested on: MCF-7 (human breast adenocarcinoma cell line)
# EXPERIMENT_NOTES: MTT cytotoxicity assay, MCF-7
# Assay type: cell-based
# CONDITIONS_USED: Homo sapiens, MCF7, MTT assay, mean of four independent studies; read-out: IC50 against MCF-7
List of pIC50 values.
The meaning of pIC50 here: minus log10 of the concentration in molar units.

The following molecules have reported results that may help.
{"SMILES_CODE": "O=C(CSc1nnc(-c2ccc3nc(-c4ccc(O)cc4)[nH]c3c2)o1)N1CCN(Cc2ccc(F)cc2)CC1", "MEASURED_METRIC": "pIC50", "OBSERVED_RESULT": 5.18}
{"SMILES_CODE": "COc1ccc(-c2nc3ccc(-c4nnc(SCC(=O)N5CCN(Cc6ccc(Cl)cc6)CC5)o4)cc3[nH]2)cc1", "MEASURED_METRIC": "pIC50", "OBSERVED_RESULT": 4.34}

Note pIC50 for the molecule shown: O=C(CSc1nnc(-c2ccc3nc(-c4ccc(O)cc4)[nH]c3c2)o1)N1CCN(Cc2ccc(Cl)cc2)CC1 5.29

All figures here come from paper PMC9097188.
